Cited source for all entries: patent US8101605B2

study system: UniProtKB Q92835
Sequence (Q92835 1-1189): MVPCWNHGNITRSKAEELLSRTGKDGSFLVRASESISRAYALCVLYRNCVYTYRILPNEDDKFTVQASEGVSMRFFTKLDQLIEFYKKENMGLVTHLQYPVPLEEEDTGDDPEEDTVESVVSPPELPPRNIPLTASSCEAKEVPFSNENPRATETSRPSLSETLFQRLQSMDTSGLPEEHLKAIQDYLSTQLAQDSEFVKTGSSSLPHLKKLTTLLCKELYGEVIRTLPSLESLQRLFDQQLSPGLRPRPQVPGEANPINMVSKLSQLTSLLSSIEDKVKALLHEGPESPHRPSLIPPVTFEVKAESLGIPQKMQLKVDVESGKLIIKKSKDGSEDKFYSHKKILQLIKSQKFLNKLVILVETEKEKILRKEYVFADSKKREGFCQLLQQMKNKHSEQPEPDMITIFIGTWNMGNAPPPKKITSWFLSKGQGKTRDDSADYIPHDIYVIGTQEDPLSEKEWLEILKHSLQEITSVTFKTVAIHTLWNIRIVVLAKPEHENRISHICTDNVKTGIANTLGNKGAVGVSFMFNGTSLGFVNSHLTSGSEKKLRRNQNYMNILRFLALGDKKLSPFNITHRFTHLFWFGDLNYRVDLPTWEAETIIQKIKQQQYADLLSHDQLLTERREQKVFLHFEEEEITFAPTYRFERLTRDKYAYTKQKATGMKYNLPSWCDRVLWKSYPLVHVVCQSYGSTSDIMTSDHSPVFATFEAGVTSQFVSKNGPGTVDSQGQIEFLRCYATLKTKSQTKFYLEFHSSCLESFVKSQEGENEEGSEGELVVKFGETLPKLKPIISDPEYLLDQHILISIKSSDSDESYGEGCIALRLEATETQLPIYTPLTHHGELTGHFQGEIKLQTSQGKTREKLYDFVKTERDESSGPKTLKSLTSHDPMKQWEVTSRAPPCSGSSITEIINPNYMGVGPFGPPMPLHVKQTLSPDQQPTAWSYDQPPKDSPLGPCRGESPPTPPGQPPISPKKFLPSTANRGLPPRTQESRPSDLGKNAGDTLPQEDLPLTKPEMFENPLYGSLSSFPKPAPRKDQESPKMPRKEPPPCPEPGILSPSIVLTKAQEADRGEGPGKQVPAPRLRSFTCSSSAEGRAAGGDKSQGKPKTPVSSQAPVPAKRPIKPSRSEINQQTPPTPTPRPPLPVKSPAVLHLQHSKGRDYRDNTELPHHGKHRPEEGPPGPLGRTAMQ
protocol notes: His-hSHIP1 phosphatase activity assay (IP4 substrate, Biomol Green)
Type: biochemical
test parameters: percentage increase relative to background; concentrations ≦300 μM
endpoint name: Scoring: percent (%) activation of His-hSHIP1 enzyme

Previously resolved entries follow.
CC1(C)CCC[C@]2(C)[C@H]3CS(=O)(=O)c4cc(O)cc(O)c4[C@]3(C)CC[C@@H]12 = +++ (≧65%)
CC1(C)CCC[C@]2(C)[C@H]3CS(=O)(=O)c4cc(O)cc(C(=O)N5CCNCC5)c4[C@]3(C)CC[C@@H]12 = + (<50%)
COC(=O)CNC(=O)c1cc(O)cc2c1[C@]1(C)CC[C@H]3C(C)(C)CCC[C@]3(C)[C@H]1CS2(=O)=O = + (<50%)
COc1cc(O)c2c(c1)[C@]1(C)CC[C@H]3C(C)(C)CCC[C@]3(C)[C@H]1CO2 = ++ (≧50% but <65%)
CN1CCN(C(=O)c2cc(O)cc3c2[C@]2(C)CC[C@H]4C(C)(C)CCC[C@]4(C)[C@H]2CS3(=O)=O)CC1 = + (<50%)

Q. Looking for the measured Scoring: percent (%) activation of His-hSHIP1 enzyme of CC1(C)CCC[C@]2(C)[C@H]3CSc4cc(O)cc(O)c4[C@]3(C)CC[C@@H]12 , can you help?
A. + (<50%)

Q. Looking for the measured Scoring: percent (%) activation of His-hSHIP1 enzyme of Cc1cc(O)c2c(c1)S(=O)(=O)C[C@@H]1[C@@]3(C)CCCC(C)(C)[C@@H]3CC[C@@]21C , can you help?
A. +++ (≧65%)

Q. Looking for the measured Scoring: percent (%) activation of His-hSHIP1 enzyme of COC(=O)CNC(=O)c1cc(O)c2c(c1)S(=O)(=O)C[C@@H]1[C@@]3(C)CCCC(C)(C)[C@@H]3CC[C@@]21C , can you help?
A. + (<50%)
